method_notes: Tissue distribution of 18F imaging agents in rats
Assay type: in vivo, Male Sprague Dawley rats
condition_context: rat, iv tail vein ~15 μCi, 15 min post injection, ± SEM
With a cut-off of 0.9 % ID/g, any Kidney, imaging agent distribution at 15 min strictly below it is called Criterion met; any Kidney, imaging agent distribution at 15 min meeting it or above is called Criterion not met.

> print(dat)
                                   compound              label
1  CC(C)(C)n1ncc(OCc2ccc(C#CCCF)cc2)c(Cl)c1=O [Example 67K]  Criterion not met
2  CC(C)(C)n1ncc(OCc2ccc([Si](F)(C(C)(C)C)C(C)(C)C)cc2)c(Cl)c1=O [Example 67N]      Criterion met
3  CC(C)(C)n1ncc(OCc2ccc(-c3cnc(F)nc3)cc2)c(Cl)c1=O [Example 67L]      Criterion met
4  CC(C)(C)n1ncc(OCc2ccc(OCCCF)c(Cl)c2)c(Cl)c1=O [Example 67C]  Criterion not met
5  CC(C)(C)n1ncc(OCc2ccc(C(=O)OCCF)cc2)c(Cl)c1=O [Example 67J]      Criterion met
6  CC(C)(C)n1ncc(OCc2cccc(OCCF)c2)c(Cl)c1=O [Example 67F]  Criterion not met
7  CC(C)(C)n1ncc(CCc2ccc(COCCF)cc2)c(Cl)c1=O [Example 67M]      Criterion met
8  CC(C)n1ncc(OCc2ccc(COCCF)cc2)c(Cl)c1=O [Example 67H]      Criterion met
